assay: Antioxidant activity assessed as trolox equivalent of AAPH radical scavenging activity at 10 uM measured every min for 90 mins by ORAC-FL assay; format: functional
attribute measured: Activity (equiv)

Cn1c(=O)oc2cc(C(=O)CCN3CCN(Cc4ccccc4)CC3)ccc21: 3.03
Cn1c(=O)sc2cc(NC(=O)CCCCN3CCC(c4ccccc4)CC3)ccc21: 2.61
Cn1c(=O)oc2cc(NC(=O)CCN3CCN(c4ccc(Cl)cc4)CC3)ccc21: 3.95
Cn1c(=O)sc2cc(NC(=O)CCCN3CCN(Cc4ccccc4)CC3)ccc21: 3.91
CN(CCC(=O)Nc1ccc2c(c1)sc(=O)n2C)Cc1ccccc1: 3.9
Cn1c(=O)sc2cc(NC(=O)CCN3CCN(Cc4ccc(F)cc4)CC3)ccc21: 4.1
COc1ccc(CN2CCN(CCC(=O)Nc3ccc4c(c3)oc(=O)n4C)CC2)cc1: 4.2
Cn1c(=O)oc2cc(NC(=O)CCN3CCN(Cc4ccc(F)cc4)CC3)ccc21: 3.92
